Numbers sourced from PubChem BioAssay (NCI).

System: HOP-62 NSCLC
Assay: NCI tumour cell line growth inhibition, 48 h
Listing of entries alongside the reported TGI.
parameter.measured: TGI

# compound, parameter.measured, value.measured
records = [
    ("CCCN1CN(C(C(=O)N[C@@H]2C(=O)N3C(C(=O)O)=C(C)CSC23)c2ccccc2)CSC1=S (stereo not given in full)", "TGI", "> 100 µM"),
    ("Cn1cc(-c2nc(-c3cn(C)c4ncccc34)cs2)c2cc(F)ccc21", "TGI", "84.7 µM"),
    ("O=C1/C(=c2\\c3ccccc3n3c(=O)c4ccccc4nc23)Nc2ccccc21", "TGI", "> 100 µM"),
    ("Clc1ccc(CCn2cncn2)c(Cl)c1", "TGI", "> 100 µM"),
    ("O=S(=O)(c1ccccc1)C1CN(Cc2ccccc2)CCN(Cc2ccccc2)C1", "TGI", "> 100 µM"),
    ("Nc1nc(Cl)cc(NCC2(CO)CC(Cc3ccccc3)C2)n1 (stereo not given)", "TGI", "> 100 µM"),
    ("COC(=O)c1cc(O)ccc1NC(=O)c1ccc(O)cc1", "TGI", "> 100 µM"),
    ("Cc1ccc(S(=O)(=O)NC(=O)Nc2nc(Cl)cc(Cl)n2)cc1", "TGI", "> 100 µM"),
    ("COc1ccc2c(c1)c(=O)oc1cc(OC/C(=N\\O)c3ccc(F)cc3)ccc12", "TGI", "41.8 µM"),
    ("Cn1c(=O)c2c(nc3sc4ncccc4c(=O)n32)n(C)c1=O", "TGI", "> 100 µM"),
    ("O=C1CC23CC(=O)CC2(C1)c1ccccc1C3=O (stereo not given)", "TGI", "> 100 µM"),
    ("CC(C)(Cc1ccccc1)Cc1cc(O)ccc1O", "TGI", "64.3 µM"),
    ("Cn1c(C2CC(C)(C)c3c2c2ccccc2n3C)cc2ccccc21 (stereo not given)", "TGI", "> 304 µM"),
    ("O=CN/C=C/c1ccccc1O", "TGI", "> 100 µM"),
    ("Clc1cccc(Cl)c1C1SCc2nc3ncccc3n21 (stereo not given)", "TGI", "> 100 µM"),
    ("COc1cc2c(/C=C3/C(=O)Nc4c3ccc3ccccc43)c(Cl)[nH]c2cc1C", "TGI", "4.08 µM"),
    ("COC(=O)c1c/c(=N\\NC(=O)CC(=O)Nc2ccc(C)cc2)c2ccccc2o1", "TGI", "> 100 µM"),
    ("CCC1CCN=C(Cn2cc(C)c(=O)[nH]c2=O)N1 (stereo not given)", "TGI", "> 100 µM"),
    ("CCOC(=O)C1C(=O)CC(C)(O)C(C(=O)OCC)C1c1ccc(OC)cc1 (stereo not given)", "TGI", "> 100 µM"),
    ("FC(F)(F)c1ccccc1C=NC12CC3CC(CC(C3)C1)C2", "TGI", "> 100 µM"),
    ("Cc1ccc(C(=O)Nc2ccc(CP(=O)(O)O)cc2)cc1NC(=O)Nc1cc(C(=O)Nc2ccc(CP(=O)(O)O)cc2)ccc1C", "TGI", "> 100 µM"),
    ("Cc1ccc(S(=O)(=O)C2=C3C(=C(c4ccccc4)c4ccccc43)CN(S(=O)(=O)c3ccc(C)cc3)C2)cc1", "TGI", "51.9 µM"),
    ("CC(C)(C)C1CCN(C(=O)c2ccccc2)CC1", "TGI", "> 100 µM"),
    ("O=C1C(c2c(O)[nH]c3ccc(S(=O)(=O)N(CCO)CCO)cc23)=Nc2ccccc21", "TGI", "> 100 µM"),
    ("O=C(Nc1ccc(F)cc1)c1cc2ccc(O)cc2oc1=Nc1cccc(F)c1", "TGI", "> 100 µM"),
    ("COC(=O)c1cc(/C=C2\\Cc3cc4c(cc3C2=O)CCC4)cc2c1CCC2", "TGI", "> 100 µM"),
    ("CCOC(=O)c1cc(C2(OC)CCN(Cc3ccccc3)C2=O)c(-c2cc(C)no2)[nH]1 (stereo not given)", "TGI", "> 100 µM"),
    ("O=C(CN1CCCC1)Nc1ccc2sc3ccccc3c(=O)c2n1", "TGI", "65 µM"),
    ("C/C(CN1C(=O)c2ccccc2C1=O)=N\\NS(C)(=O)=O", "TGI", "> 100 µM"),
    ("Cc1cc(NC(=O)C(=O)Cc2nc3ccccc3s2)ccc1Cl", "TGI", "> 100 µM"),
    ("Cc1cc(Cl)ccc1Nc1nc(C(F)(F)F)ccc1C(=O)N/N=C/c1ccc(F)cc1", "TGI", "6.65 µM"),
    ("CC1(c2nc3cc(Cl)c(Cl)cc3[nH]2)CCC(C(=O)O)C(C)(C)O1 (stereo not given)", "TGI", "> 100 µM"),
    ("O=C(NO)c1ccc(OCc2ccccc2)cc1", "TGI", "> 100 µM"),
    ("N=C(N)c1ccc(-c2ccc(-c3ccco3)o2)cc1F", "TGI", "10.4 µM"),
    ("O=C(O)c1cn(C2CC2)c2cc(N3CCN(C(=O)Nc4nc(-c5ccc(Cl)cc5)cs4)CC3)c(F)cc2c1=O", "TGI", "96.1 µM"),
    ("Clc1ccc(CSCc2ccc(Cl)cc2Cl)c(Cl)c1", "TGI", "> 100 µM"),
    ("CN(C)N1C(=O)CC2(CCN(CCCC(=O)c3ccc(F)cc3)CC2)C1=O", "TGI", "> 100 µM"),
    ("Cc1cc2nc3c(C#N)c(-c4ccccc4)cc(Nc4cccc(C(F)(F)F)c4)n3c2cc1C", "TGI", "35.2 µM"),
    ("O=C(O)C1CCCN1Cc1ccc2c(c1)OCO2 (stereo not given)", "TGI", "> 100 µM"),
    ("O=C1CSc2ccncc2N1", "TGI", "> 100 µM"),
    ("CCOCC[P+](c1ccccc1)(c1ccccc1)c1ccccc1", "TGI", "> 100 µM"),
    ("N#Cc1ccccc1/C=N/O", "TGI", "> 100 µM"),
    ("CN(C)CC1CN(C(=O)Nc2ccccc2)C(=N)O1 (stereo not given)", "TGI", "> 100 µM"),
    ("CCN(CC)CCCC(C)Nc1ccnc2cc(Cl)c(SCc3ccccc3)cc12 (stereo not given)", "TGI", "3.01 µM"),
    ("COC(=O)C1CCc2nnc(-c3cccnc3)n21 (stereo not given)", "TGI", "> 100 µM"),
]
